meta.source: paper PMC3353862

// MIC lookup, one value per entry
Tested on: S. aureus
Assay: Broth microdilution MIC testing
Format: cell-based, Staphylococcus aureus
Settings: Staphylococcus aureus, read-out: MIC S. aureus

The examples below pair each entry with its known result.
* COc1cccc(CN2CCc3nc(-c4ccncc4)nc(O)c3C2)c1 [Compound 321388] | > 128 µg/mL
* Oc1nc(-c2cccnc2)nc2c1CN(Cc1cccc(F)c1)CC2 [Compound 321376] | > 128 µg/mL
* O=c1nc(-c2ccccn2)nc2ccn(Cc3ccc(Cl)cc3)cc1-2 [Compound 332055] | > 128 µg/mL

Continue with the molecule presented below.
Reported MIC of Cc1cccc(-c2nc3c(c(=O)[nH]2)CN(Cc2ccc(Cl)cc2)CC3)n1 [Compound 332052] : > 128 µg/mL
